Give LUMO for every item shown.
assay-info: LUMO level estimated from cyclic voltammetry (CV)
Assay type: physicochemical
study-conditions: ELUMO=−(E1/2^1+4.8) eV, from CV
Form entry: value (eV) — number only.

IN: Write down LUMO measured for item C1=CC2=c3ccc4c5ccc6c7ccc8c9ccc%10c%11c%12c%13c%14c(c3c4c3c5c6c4c7c8c(c%119)c%13c4c%143)C23C(c2ccccc2)N(c2ccccc2)CC%123C=%101 (stereo not shown) [Control Compound 1, reference compound]
OUT: −3.67

IN: Write down LUMO measured for item COC(=O)CCCC1(c2ccccc2)C23c4c5c6c7c8c9c(c%10c%11c2c2c%12c4c4c%13c5c5c7c7c8c8c%14c9c%10c9c%10c%11c2c2c%11c%12c4c4c%12c%13c5c5c7c7c8c8c%14c9c9c%10c2c2c%11c4c4c%12c5c7c5c8c9c2c45)C613 (stereo not shown) [[60]PCBM, reference compound]
OUT: −3.67

IN: Write down LUMO measured for item CCCCC(CC)CC1N(c2ccccc2)C(c2ccccc2)C23c4c5c6c7c8c9c(c%10c%11c2c2c%12c4c4c%13c5c5c7c7c8c8c%14c9c%10c9c%10c%11c2c2c%11c%12c4c4c%12c%13c5c5c7c7c8c8c%14c9c9c%10c2c2c%11c4c4c%12c5c7c5c8c9c2c45)C613 (stereo not shown) [Compound 2]
OUT: −3.63

IN: Write down LUMO measured for item CCCCCCC1N(c2ccccc2)C(c2ccccc2)C23c4c5c6c7c8c9c(c%10c%11c2c2c%12c4c4c%13c5c5c7c7c8c8c%14c9c%10c9c%10c%11c2c2c%11c%12c4c4c%12c%13c5c5c7c7c8c8c%14c9c9c%10c2c2c%11c4c4c%12c5c7c5c8c9c2c45)C613 (stereo not shown) [Compound 1]
OUT: −3.64

----------
Give E1/2^1, half-wave potential of the first reduction wave for every item shown.
assay-info: LUMO level estimated from cyclic voltammetry (CV)
Assay type: physicochemical
study-conditions: CV, 3-electrode system; chlorobenzene:acetonitrile=5:1; n-Bu4NPF6 0.1 mol/L
Form entry: value (V vs Fc/Fc^++) — number only.

IN: Write down E1/2^1, half-wave potential of the first reduction wave measured for item CCCCC(CC)CC1N(c2ccccc2)C(c2ccccc2)C23c4c5c6c7c8c9c(c%10c%11c2c2c%12c4c4c%13c5c5c7c7c8c8c%14c9c%10c9c%10c%11c2c2c%11c%12c4c4c%12c%13c5c5c7c7c8c8c%14c9c9c%10c2c2c%11c4c4c%12c5c7c5c8c9c2c45)C613 (centres unmarked)
OUT: −1.17

IN: Write down E1/2^1, half-wave potential of the first reduction wave measured for item CCCCCCC1N(c2ccccc2)CC23C4=c5ccc6c7ccc8c9ccc%10c%11ccc%12c%13c(c%14c%15c2c5c6c2c7c8c5c9c%10c(c%13%11)c%14c5c%152)C13C=%12C=C4 (centres unmarked) [Control Compound 2, reference compound]
OUT: −1.14

----------
assay-info: LUMO level estimated from cyclic voltammetry (CV)
Type: physicochemical
study-conditions: ELUMO=−(E1/2^1+4.8) eV, from CV
Give LUMO for every item shown.
Form entry: value (eV) — number only.

IN: Write down LUMO measured for item CCCCCCC1N(c2ccccc2)CC23C4=c5ccc6c7ccc8c9ccc%10c%11ccc%12c%13c(c%14c%15c2c5c6c2c7c8c5c9c%10c(c%13%11)c%14c5c%152)C13C=%12C=C4 (stereo not drawn) [Control Compound 2, reference compound]
OUT: −3.66

IN: Write down LUMO measured for item COCCOCCOCC1N(c2ccccc2)C(c2ccccc2)C23c4c5c6c7c8c9c(c%10c%11c2c2c%12c4c4c%13c5c5c7c7c8c8c%14c9c%10c9c%10c%11c2c2c%11c%12c4c4c%12c%13c5c5c7c7c8c8c%14c9c9c%10c2c2c%11c4c4c%12c5c7c5c8c9c2c45)C613 (stereo not drawn)
OUT: −3.63

IN: Write down LUMO measured for item CCCCOCC1N(c2ccccc2)C(c2ccccc2)C23c4c5c6c7c8c9c(c%10c%11c2c2c%12c4c4c%13c5c5c7c7c8c8c%14c9c%10c9c%10c%11c2c2c%11c%12c4c4c%12c%13c5c5c7c7c8c8c%14c9c9c%10c2c2c%11c4c4c%12c5c7c5c8c9c2c45)C613 (stereo not drawn)
OUT: −3.63
